Taken from patent US20240327535A1.

- SYSTEM: T1, extracellular domain of rhesus monkey BCMA (rhesus monkey, UniProt F7FFA0 1-53)
- T1 construct: extracellular domain; also called RhBCMA
- T1 sequence (F7FFA0 entry or part of it): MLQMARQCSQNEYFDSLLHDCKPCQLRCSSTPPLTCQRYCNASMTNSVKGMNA
- METHOD_DESCRIPTION: Octet BLI; Fab 200 nM
MEASURED_PROPERTY: pKd
Numbers only, as −log10 of the molar value.

BINDER | pKd
AB200_Fab + D99H (Fab, V domains shown, also called AB200_D99H; D99H variant) VH: QVQLVQSGAEVKKPGSSVKVSCKASGGTFSNYWMHWVRQAPGQGLEWMGATYRGHSDTYYNQKFKGRVTITADKSTSTAYMELSSLRSEDTAVYYCARGAIYHGYDVLDNWGQGTLVTVSS VL: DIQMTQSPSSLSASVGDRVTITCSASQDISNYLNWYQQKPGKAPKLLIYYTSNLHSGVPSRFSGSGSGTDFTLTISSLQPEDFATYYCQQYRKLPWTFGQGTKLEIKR | 8.24

Here's the next entry for you.
Can you share its pKd? I mean this binder: AB200_Fab + D99E (Fab, name in Kabat numbering, V domains shown) VH: QVQLVQSGAEVKKPGSSVKVSCKASGGTFSNYWMHWVRQAPGQGLEWMGATYRGHSDTYYNQKFKGRVTITADKSTSTAYMELSSLRSEDTAVYYCARGAIYEGYDVLDNWGQGTLVTVSS VL: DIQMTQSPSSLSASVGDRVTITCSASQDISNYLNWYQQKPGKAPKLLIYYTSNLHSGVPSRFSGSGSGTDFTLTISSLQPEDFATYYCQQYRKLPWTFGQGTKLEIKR 7.87
